measurement target: T1, Rb^P H673Y (human, UniProt P06400 380-788, H673Y)
T1 construct: also called variant 55
T1 sequence (looked up): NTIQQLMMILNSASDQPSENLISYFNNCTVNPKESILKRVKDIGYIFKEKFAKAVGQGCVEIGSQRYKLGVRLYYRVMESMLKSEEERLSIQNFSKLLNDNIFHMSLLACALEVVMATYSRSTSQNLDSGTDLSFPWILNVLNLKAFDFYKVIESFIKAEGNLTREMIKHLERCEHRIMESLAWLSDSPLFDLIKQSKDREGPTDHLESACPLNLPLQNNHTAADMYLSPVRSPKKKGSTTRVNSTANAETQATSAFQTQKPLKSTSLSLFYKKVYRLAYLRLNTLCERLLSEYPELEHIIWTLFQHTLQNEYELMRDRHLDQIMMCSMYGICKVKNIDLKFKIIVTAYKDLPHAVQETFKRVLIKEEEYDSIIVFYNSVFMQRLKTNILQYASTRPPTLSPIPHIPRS
assay method text: fluorescence polarisation; 25 °C; unlabeled Rb^P titrated against 1.5 nM TMR-E2F1^TD or 7.5 nM TMR-E7^LxCxE; 25 mM Tris pH 8.0, 200 mM NaCl, 1 mM DTT, 0.1% Tween-20; 2 min incubation; quadratic fit; apparent Kd for the variants, Kd for WT
experimental setup: both partners purified
No end group written: not given here. TMR = tetramethyl rhodamine dye
experimental readout: Kd
Please append the unit to your numeric answer.

Req: Tell us which Kd value is on record for DLYCYEQLN (also: TMR label, position not given here, source: synthetic peptide, bought: GenScript) [TMR-E7^LxCxE, LxCxE peptide of the E7 oncoprotein from HPV]
Resp: 10 nM

Now for a further binder.
Req: Tell us which Kd value is on record for {TMR}-GEGIRDLFDCDFGDLTPLD (also called E2F^TD; source: synthetic peptide, bought: GenScript) [TMR-E2F1^TD, peptide of the E2F1 transactivation domain]
Resp: 26 nM
